Give Population Mitochondria Different-Phenotype (%) for every item shown.
Tested on: U2OS
PROCEDURE_SUMMARY: Multiplex assay against U2OS
Format: toxicity, cell-based
CONDITIONS: human, 48 h, 10 µM, compound concentration 10 uM, replicate 1
State the result as a value with its unit after it.

(Q) State the recorded Population Mitochondria Different-Phenotype (%) for this entry: CCCc1cc(C)[nH]c(=O)c1CNC(=O)c1cc(-c2ccc(N3CCN(C(C)C)CC3)nc2)cc2c1cnn2C(C)C
(A) 100%

(Q) May I ask what Population Mitochondria Different-Phenotype (%) has been recorded for N#CCNC(=O)c1ccc(-c2ccnc(Nc3ccc(N4CCOCC4)cc3)n2)cc1 ?
(A) 20%

(Q) Name the recorded Population Mitochondria Different-Phenotype (%) for Cl.NC[C@@H]1O[C@H](C23CC4CC(CC(C4)C2)C3)Cc2c1ccc(O)c2O .
(A) 16%

(Q) Param item = CC(C)[C@H](CO)Nc1nc(Nc2cccc(Cl)c2)c2ncn(C(C)C)c2n1 ; retrieve measured Population Mitochondria Different-Phenotype (%).
(A) 94%

(Q) Which value of Population Mitochondria Different-Phenotype (%) has been reported for CC(C)c1cc(Nc2nc(N3CCC[C@H](N)C3)ncc2C(N)=O)cc(C(C)C)n1 in the records?
(A) 100%

(Q) // lookup Population Mitochondria Different-Phenotype (%) for CC(/C=C1\SC(=S)N(CCCC(=O)Nc2ccc(C(=O)O)c(O)c2)C1=O)=C\c1ccccc1
(A) 11%

(Q) What value of Population Mitochondria Different-Phenotype (%) has been reported for the following compound? CN1C(=O)[C@@H](NC(=O)c2cc3ccccc3[nH]2)N=C(c2ccccc2)c2ccccc21 [DEVAZEPIDE]
(A) 38%

(Q) // Population Mitochondria Different-Phenotype (%) lookup, key: Oc1cccc(-c2nc(N3CCOCC3)c3oc4ncccc4c3n2)c1
(A) 48%

(Q) Name the recorded Population Mitochondria Different-Phenotype (%) for CN1CCN(Cc2ccc(-c3cnc4[nH]cc(-c5ccc6[nH]ccc6c5)c4c3)cc2)CC1 .
(A) 100%

(Q) If you can, please state the reported Population Mitochondria Different-Phenotype (%) value of Cc1ccc(S(=O)(=O)NC2c3ccccc3Oc3ccccc32)cc1 .
(A) 12%

(Q) What Population Mitochondria Different-Phenotype (%) value was documented for this compound, Cc1c(P(=S)(c2ccccc2)c2ccccc2)n2ccccc2[n+]1C/C=C/c1ccccc1.[Br-] ?
(A) 100%

(Q) Form field: reported Population Mitochondria Different-Phenotype (%) of CCCCN(CC)c1nc(C)nc2c1c(C)cn2-c1c(C)cc(C)cc1C.Cl
(A) 30%

(Q) What measured Population Mitochondria Different-Phenotype (%) goes with Cc1c(Nc2ccc(S(=O)(=O)N3CCN(C)CC3)cc2F)nc2ccc(-c3cnn(C4CC4)c3)cn2c1=O ?
(A) 8%

(Q) Please report the recorded Population Mitochondria Different-Phenotype (%) for CC(Cc1ccc(O)c(O)c1)C(C)Cc1ccc(O)c(O)c1 (stereo not given) [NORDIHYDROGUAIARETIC ACID] .
(A) 18%

(Q) Using the record for CCCCCNC(=N)N/N=C/c1c[nH]c2ccc(OC)cc12.O=C(O)/C=C\C(=O)O [TEGASEROD MALEATE] , report its Population Mitochondria Different-Phenotype (%).
(A) 100%

(Q) Fill blank: measured Population Mitochondria Different-Phenotype (%) of the compound c1ccc(-c2oc3ncnc(NC[C@@H]4CCCO4)c3c2-c2ccccc2)cc1 is ____.
(A) 61%

(Q) Please give the measured Population Mitochondria Different-Phenotype (%) for this compound: C=CC(=O)Nc1cc(-n2c(=O)ccc3cnc4ccc(-c5ccc(NS(C)(=O)=O)cc5)cc4c32)ccc1C
(A) 19%

(Q) Would you kindly share the measured Population Mitochondria Different-Phenotype (%) for N#Cc1cccc(C(=O)Nc2cc(-c3ccccc3)nn2-c2ccccc2)c1 ?
(A) 67%

(Q) Can you share its Population Mitochondria Different-Phenotype (%)? I mean this compound: CN(c1cc(C(F)(F)F)nc(OCCC(=O)O)n1)c1cccc2c1CCC2
(A) 9%

(Q) Need Population Mitochondria Different-Phenotype (%), item C[C@@H](Oc1cc(-n2cnc3ccc(CN4CCN(C)CC4)cc32)sc1C(N)=O)c1ccccc1C(F)(F)F
(A) 94%
